Source listed as ChEMBL document CHEMBL4043299.

Test details: Selectivity index, ratio of IC50 for rat L6 cells to IC50 for bloodstream form of Trypanosoma brucei rhodesiense STIB 900
Format: toxicity
Protocol conditions: L6 cells, read-out: Ratio IC50
class 1 means recorded selectivity ratio is 2000 or above; class 0 means it is below 2000.

N#CC1(NC(=O)[C@@H]2Cc3ccc(c(I)c3)OCCCCOc3cc(C(F)(F)F)ccc3C(=O)N2)CC1	class 0
N#CC1(NC(=O)[C@@H]2Cc3ccc(c(Cl)c3)OC/C=C/CCn3nc(cc3C3CC3)C(=O)N2)CC1	class 1
N#CC1(NC(=O)[C@@H]2Cc3ccc(c(Cl)c3)OC/C=C/COc3ccc(-c4ccc(F)cc4)cc3C(=O)N2)CC1 (mixture of isomers)	class 0
N#CC1(NC(=O)[C@@H]2Cc3ccc(c(Cl)c3)OC/C=C/COc3cc(C(F)(F)F)ccc3C(=O)N2)CC1	class 1

**Q:** Does selectivity ratio meet or surpass 2000 for N#CC1(NC(=O)[C@@H]2Cc3ccc(c(Cl)c3)OC/C=C/COc3cc(-c4cnn(C(F)F)c4)ccc3C(=O)N2)CC1 (mixture of isomers) ?
**A:** class 0

**Q:** Given the entry N#CC1(NC(=O)[C@@H]2Cc3ccc(c(Cl)c3)OC/C=C/COc3cc(-c4ccc(Cl)nc4)ccc3C(=O)N2)CC1 (mixture of isomers) , answer whether its selectivity ratio meets or surpasses 2000.
**A:** class 0
